biological target: T1, cynomolgus monkey BCMA (cynomolgus monkey, UniProt A0A2K5UD97 1-53); experiment: SPR, IgG on chip, cyBCMA analyte
T1 construct: Soluble analyte in SPR; construct not described; also called cyBCMA; Cyno BCMA
T1 sequence (A0A2K5UD97 entry or part of it): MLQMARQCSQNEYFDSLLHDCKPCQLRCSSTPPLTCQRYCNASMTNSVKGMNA
Entries annotated with measured kon
State the answer as a number, implicitly in M⁻¹ s⁻¹.

binder="COMBO_Rd4_0.6nM_C23 (antibody, V domains shown, IgG) VH: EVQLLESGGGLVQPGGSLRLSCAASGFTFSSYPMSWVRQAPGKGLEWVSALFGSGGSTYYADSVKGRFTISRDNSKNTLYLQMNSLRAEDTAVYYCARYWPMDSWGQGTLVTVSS VL: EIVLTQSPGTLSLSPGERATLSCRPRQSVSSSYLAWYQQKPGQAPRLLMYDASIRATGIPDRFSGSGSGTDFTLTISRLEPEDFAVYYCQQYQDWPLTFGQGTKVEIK" test_value=2.81e+06

Task: Sample COMBO_Rd4_0.6nM_C30 (antibody, V domains shown, IgG) VH: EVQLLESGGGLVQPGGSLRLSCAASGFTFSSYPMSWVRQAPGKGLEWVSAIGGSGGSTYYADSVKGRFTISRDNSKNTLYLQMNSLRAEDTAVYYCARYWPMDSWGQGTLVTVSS VL: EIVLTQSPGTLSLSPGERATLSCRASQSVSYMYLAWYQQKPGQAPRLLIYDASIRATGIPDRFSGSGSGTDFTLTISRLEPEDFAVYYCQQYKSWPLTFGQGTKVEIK — what was its kon?
Result: 1.68e+06

Task: Next entry: A02_Rd4_6nM_C07 (antibody, V domains shown, IgG) VH: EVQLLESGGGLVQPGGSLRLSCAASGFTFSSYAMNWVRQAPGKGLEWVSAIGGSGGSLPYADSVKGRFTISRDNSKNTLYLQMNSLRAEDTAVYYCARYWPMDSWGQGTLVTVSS VL: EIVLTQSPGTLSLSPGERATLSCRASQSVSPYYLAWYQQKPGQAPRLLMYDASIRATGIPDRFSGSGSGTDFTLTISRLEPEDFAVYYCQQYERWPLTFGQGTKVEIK
Result: 691000

Cited source: patent US20190241669A1
